# Tested on: 328373-195-R-J1-PDC complex spheroids, viability % test/control;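 also: spheroids exposed to the agents for 7 days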
# assayProtocol: Anticancer human tumor 328373-195-R-J1-PDC patient-derived head and neck squamous carcinoma cell line growth inhibition [CLK]
# measurementSetup: curve of first compound; second compound 1 µM
measureName: IC50

These solved cases illustrate the format of a correct answer.
- molecule: "CC(CO)NC(=O)c1cc(-c2ccc(Cl)cc2)nn(-c2cnn(C)c2)c1=O (stereo unspecified) + CNC(=O)c1ccc(Nc2nc(OC3CCCC3)c3c(-c4ccc5nc(C)oc5c4)c[nH]c3n2)c(OC)c1"
  result: "< 31.6 nM"
- molecule: "COc1ccc([C@@H](O)c2cc(-c3ncnc4cc(N5CCOCC5)ccc34)c(F)cc2Cl)nn1 + CN1CCN(c2cc(C(=O)Nc3cc4cc(-c5cnn(C)c5)ccc4cn3)ccn2)CC1"
  result: "< 31.6 nM"
- molecule: "C=CC(=O)Nc1cc(Nc2nccc(-c3cn(C)c4ccccc34)n2)c(OC)cc1N(C)CCN(C)C + CNC(=O)c1ccc(Nc2nc(OC3CCCC3)c3c(-c4ccc5nc(C)oc5c4)c[nH]c3n2)c(OC)c1"
  result: "< 0.949 nM"

Query :: # input molecule: CC1COCCN1c1cc(C2(S(C)(=N)=O)CC2)nc(-c2ccnc3[nH]ccc23)n1 (stereo unspecified) + CN1CCN(c2cc(C(=O)Nc3cc4cc(-c5cnn(C)c5)ccc4cn3)ccn2)CC1 ; wanted: its IC50
Result :: < 31.6 nM

Query :: For COc1c(OCCCN2CCOCC2)ccc2c3n(c(=NC(=O)c4cnc(N)nc4)nc12)CCN3 + CN1CCN(c2cc(C(=O)Nc3cc4cc(-c5cnn(C)c5)ccc4cn3)ccn2)CC1 then?
Result :: < 3.16 nM

Query :: Cool, now NC(=O)C(=Cn1cnc(-c2cc(C(F)(F)F)cc(C(F)(F)F)c2)n1)c1cncnc1 + CNC(=O)c1ccc(Nc2nc(OC3CCCC3)c3c(-c4ccc5nc(C)oc5c4)c[nH]c3n2)c(OC)c1
Result :: < 9.49 nM

Query :: // same read-out, input: COc1ccc([C@@H](O)c2cc(-c3ncnc4cc(N5CCOCC5)ccc34)c(F)cc2Cl)nn1 + CNC(=O)c1ccc(Nc2nc(OC3CCCC3)c3c(-c4ccc5nc(C)oc5c4)c[nH]c3n2)c(OC)c1
Result :: < 31.6 nM

Query :: // query: COc1cccc2c1C(=O)c1c(O)c3c(c(O)c1C2=O)CC(O)(C(=O)CO)CC3OC1CC(N)C(O)C(C)O1 (stereo unspecified) + CNC(=O)c1ccc(Nc2nc(OC3CCCC3)c3c(-c4ccc5nc(C)oc5c4)c[nH]c3n2)c(OC)c1
Result :: < 31.6 nM

Query :: Note, next up: CCN1CCN(Cc2ccc(Nc3ncc(F)c(-c4cc(F)c5nc(C)n(C(C)C)c5c4)n3)nc2)CC1 + CN1CCN(c2cc(C(=O)Nc3cc4cc(-c5cnn(C)c5)ccc4cn3)ccn2)CC1
Result :: < 3.16 nM

Query :: Repeat for the following molecule: C=C(F)C(=O)N1CCN(c2nc(OCC3CCCN3C)nc3c2CCN(c2cccc4cccc(Cl)c24)C3)CC1CC#N (stereo unspecified) + CN1CCN(c2cc(C(=O)Nc3cc4cc(-c5cnn(C)c5)ccc4cn3)ccn2)CC1
Result :: < 31.6 nM

Query :: Next molecule up: CC(C)CC(NC(=O)C(Cc1ccccc1)NC(=O)c1cnccn1)B(O)O (stereo unspecified) + CNC(=O)c1ccc(Nc2nc(OC3CCCC3)c3c(-c4ccc5nc(C)oc5c4)c[nH]c3n2)c(OC)c1
Result :: < 0.949 nM

Query :: Then what about the molecule CC(Nc1ccc2c(c1)OCCn1cc(N3C(=O)OCC3C(F)F)nc1-2)C(N)=O (stereo unspecified) + CN1CCN(c2cc(C(=O)Nc3cc4cc(-c5cnn(C)c5)ccc4cn3)ccn2)CC1 ?
Result :: < 31.6 nM

Query :: Quick one: CC(C)CC(NC(=O)C(Cc1ccccc1)NC(=O)c1cnccn1)B(O)O (stereo unspecified) + CN1CCN(c2cc(C(=O)Nc3cc4cc(-c5cnn(C)c5)ccc4cn3)ccn2)CC1
Result :: < 0.949 nM

Query :: Same read-out for CC1(C)CCC(CN2CCN(c3ccc(C(=O)NS(=O)(=O)c4ccc(NCC5CCOCC5)c([N+](=O)[O-])c4)c(Oc4cnc5[nH]ccc5c4)c3)CC2)=C(c2ccc(Cl)cc2)C1 + CN1CCN(c2cc(C(=O)Nc3cc4cc(-c5cnn(C)c5)ccc4cn3)ccn2)CC1 ?
Result :: < 31.6 nM

Query :: Can you handle Nc1ccn(C2OC(CO)C(O)C2(F)F)c(=O)n1 (stereo unspecified) + CN1CCN(c2cc(C(=O)Nc3cc4cc(-c5cnn(C)c5)ccc4cn3)ccn2)CC1 next?
Result :: < 31.6 nM

Query :: Also CCCS(=O)(=O)Nc1ccc(F)c(C(=O)c2c[nH]c3ncc(-c4ccc(Cl)cc4)cc23)c1F + CN1CCN(c2cc(C(=O)Nc3cc4cc(-c5cnn(C)c5)ccc4cn3)ccn2)CC1 ?
Result :: < 31.6 nM
